These measurements were taken from BindingDB's records for doi:10.1021/jm7012858.

- Target Under Test: Phosphatidylinositol 3-kinase regulatory subunit alpha/4,5-bisphosphate 3-kinase catalytic subunit alpha isoform (Homo sapiens)
- Sequence (P27986 whole entry, canonical isoform): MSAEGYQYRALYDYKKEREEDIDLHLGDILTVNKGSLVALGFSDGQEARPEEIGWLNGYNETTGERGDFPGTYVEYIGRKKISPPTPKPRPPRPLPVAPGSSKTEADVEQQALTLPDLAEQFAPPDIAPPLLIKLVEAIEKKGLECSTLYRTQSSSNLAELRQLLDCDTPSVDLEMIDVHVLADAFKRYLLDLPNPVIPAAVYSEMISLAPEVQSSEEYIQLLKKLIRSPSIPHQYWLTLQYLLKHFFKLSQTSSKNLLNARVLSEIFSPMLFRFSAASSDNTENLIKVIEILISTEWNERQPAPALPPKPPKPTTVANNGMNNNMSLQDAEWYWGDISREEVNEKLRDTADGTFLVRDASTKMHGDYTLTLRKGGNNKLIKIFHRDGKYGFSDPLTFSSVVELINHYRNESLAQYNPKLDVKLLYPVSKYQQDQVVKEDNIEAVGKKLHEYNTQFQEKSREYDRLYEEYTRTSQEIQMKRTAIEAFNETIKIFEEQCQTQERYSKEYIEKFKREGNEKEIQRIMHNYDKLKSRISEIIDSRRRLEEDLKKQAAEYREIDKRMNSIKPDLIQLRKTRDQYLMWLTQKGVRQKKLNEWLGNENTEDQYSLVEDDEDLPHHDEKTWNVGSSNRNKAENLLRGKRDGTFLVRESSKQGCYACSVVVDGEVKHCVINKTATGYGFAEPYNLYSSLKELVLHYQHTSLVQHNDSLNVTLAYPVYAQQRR
- Sequence (P42336 whole entry, canonical isoform): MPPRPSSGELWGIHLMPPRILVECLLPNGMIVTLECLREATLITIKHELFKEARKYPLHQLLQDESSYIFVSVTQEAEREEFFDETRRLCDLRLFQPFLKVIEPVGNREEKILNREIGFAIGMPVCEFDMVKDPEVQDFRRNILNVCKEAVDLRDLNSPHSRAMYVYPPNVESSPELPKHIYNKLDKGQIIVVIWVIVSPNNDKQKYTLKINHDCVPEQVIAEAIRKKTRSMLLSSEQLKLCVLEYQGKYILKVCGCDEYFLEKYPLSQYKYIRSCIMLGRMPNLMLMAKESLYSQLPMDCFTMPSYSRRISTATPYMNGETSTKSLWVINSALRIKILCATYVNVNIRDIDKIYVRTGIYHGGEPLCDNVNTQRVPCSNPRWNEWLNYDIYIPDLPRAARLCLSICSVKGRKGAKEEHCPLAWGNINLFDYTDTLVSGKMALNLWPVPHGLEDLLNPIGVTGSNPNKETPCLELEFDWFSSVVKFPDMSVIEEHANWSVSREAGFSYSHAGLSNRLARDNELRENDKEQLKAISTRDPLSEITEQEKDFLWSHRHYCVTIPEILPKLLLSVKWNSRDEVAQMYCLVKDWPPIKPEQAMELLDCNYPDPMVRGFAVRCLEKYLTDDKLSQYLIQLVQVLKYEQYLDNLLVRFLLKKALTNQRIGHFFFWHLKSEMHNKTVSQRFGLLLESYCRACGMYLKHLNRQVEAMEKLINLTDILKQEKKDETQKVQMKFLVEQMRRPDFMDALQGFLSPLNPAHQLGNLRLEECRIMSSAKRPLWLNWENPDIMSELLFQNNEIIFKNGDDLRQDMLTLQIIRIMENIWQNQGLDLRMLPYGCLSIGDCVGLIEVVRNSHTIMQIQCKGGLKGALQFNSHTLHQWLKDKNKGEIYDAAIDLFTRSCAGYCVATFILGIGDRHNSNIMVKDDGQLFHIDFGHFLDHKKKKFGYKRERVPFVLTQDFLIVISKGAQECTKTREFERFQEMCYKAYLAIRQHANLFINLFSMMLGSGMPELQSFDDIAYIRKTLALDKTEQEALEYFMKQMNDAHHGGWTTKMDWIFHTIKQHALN
- Test: PI3K Inhibition Assay
- Protocol: Inhibition of PI3K enzyme activity is measured in a microtiter plate-based fluorescence polarization (FP) assay.
Recorded Endpoint: pIC50
Give bare numbers, as −log10 of the molar value.

Worked examples, 5 molecules total:
• COC[C@H]1OC(=O)C(=CN2CCC(c3ccccc3)CC2)C2C(=O)C(=O)C3=C([C@H](OC(C)=O)C[C@@]4(C)C3CC[C@@H]4O)[C@]21C (stereo partly specified) = 6.76
• COC[C@H]1OC(=O)C(=CN2CCN(C)CC2)C2C(=O)C(=O)C3=C([C@H](OC(C)=O)C[C@@]4(C)C3CC[C@@H]4O)[C@]21C (stereo partly specified) = 7.05
• COC[C@H]1OC(=O)C(=CN(C)N2CCC(C)C2)C2C(=O)C(=O)C3=C([C@H](OC(C)=O)C[C@@]4(C)C3CC[C@@H]4O)[C@]21C (stereo partly specified) = 6.90
• COC[C@H]1OC(=O)C(=CN(C)CCCC(=O)O)C2C(=O)C(=O)C3=C([C@H](OC(C)=O)C[C@@]4(C)C3CC[C@@H]4O)[C@]21C (stereo partly specified) = 6.71
• COC[C@H]1OC(=O)C(=CN2CCN(Cc3ccccc3)CC2)C2C(=O)C(=O)C3=C([C@H](OC(C)=O)C[C@@]4(C)C3CC[C@@H]4O)[C@]21C (stereo partly specified) = 7.06

Kindly consider the entry below.
May I ask what pIC50 has been recorded for COC[C@H]1OC(=O)C(=CN2CCOCC2)C2C(=O)C(=O)C3=C([C@H](OC(C)=O)C[C@@]4(C)C3CC[C@@H]4O)[C@]21C (stereo partly specified) ?
7.43
